Assignment: determine reported EC50 for the given binders.
Assay system: SARS-CoV-2 S trimer (soluble spike ectodomain trimer) (SARS-CoV-2, UniProt P0DTC2 14-1213)
Assay info: ELISA
Numbers only, in µg/mL.

In the examples that follow, each entry is paired with its recorded EC50.
monoclonal antibody 2-15 (antibody, V domains shown) VH: QVQLVQSGAEVKKPGASVRVSCKASGYTFTGYYMHWVRQAPGQGLEWMGWINPISDGTNYAQKFQGWVTMTRDTSISTVYMELSRLRSDDTAVYYCARGGSRCSGGNCYGWAYDAFDIWGQGTMITVSS VL: QSALTQPASVSGSPGQSITISCTGTSSDVGGYNFVSWYQQHPGKAPKLMIYDVSKRPSGVSNRFSGSKSGNTASLTISGLQAEDEADCYCSSYTSSSTFVFGTGTKVTVL; 0.006
monoclonal antibody 2-51 (antibody, V domains shown) VH: QVQLVQSGAEVKKPGASVKVSCKVSGYTLIELSMHWVRQAPGKGLEWMGGFDPEDVETIYAQQFQGRVTMTEDTSTDTAYMELSSLRSEDTAVYYCATGWAYKSTWYFGYWGQGTLVTVSS VL: QSALTQPPSASGSPGQSVTISCTGTSSDVGGYNYVSWYQQHPGKAPKLMIYEVSKRPSGVPDRFSGSKSGNTASLTVSGLQAEDEADYYCSSYAGSRMGFGGGTKLTVL; 0.017
monoclonal antibody 2-4 (antibody, V domains shown) VH: QVQLVQSGAEVKKPGASVKVSCKASGYTFTGYYMHWVRQAPGQGLEWMGWINPNSGGTNYTQMFQGRVTMTRDTSISTAYMEVSRLRSDDTAVYYCARDRSWAVVYYYMDVWGKGTTVTVSS VL: QSALTQPPSASGSPGQSVTISCTGTSSDVGGYNYVSWYQQHPGKAPKLMIYEVSKRPSGVPDRFSGSKSGNTASLTVSGLQAEDEADYYCSSYAGSNNLVFGGGTKLTVL; 0.018

Alright, here's another binder for you.
Value of EC50 reported for the binder monoclonal antibody 2-38 (antibody, V domains shown) VH: EVQLVESGGGLVKPGGSLRLSCAASGFTFSSYSMNWVRQAPGKGLEWVSSISSSSSYIYYADSVKGRFTISRDNAKNSLYLQMNSLRAEDTAVYYCTRAGWELRLDAFDIWGQGTMVTVSS VL: SSELTQDPAVSVALGQTVRITCQGDSLRSSYASWYQQKPGQAPILVIYDKNNRPSGIPDRFSGSSSGNTASLTITGAQAEDEADYYCNSRDSSGILFGGGTKLTVL is 0.305
